System: HCI-023 (organoid from a triple-negative breast cancer xenograft)
assay: CTG-3D luminescence at 96 h relative to day-0 seeding control (ratio to day 0); higher = more growth / less cytotoxicity; PDxO 3D drug screen, 96 h, CTG-3D normalised to day-0 seeding control.
study.conditions: 10 µM; days in culture: 111
metric: CTG-3D luminescence at 96 h
Answers are plain numbers.

Solved cases (5 shown):
>>> measured_number("COc1cccc2c1C(=O)c1c(O)c3c(c(O)c1C2=O)C[C@@](O)(C(=O)CO)C[C@@H]3O[C@H]1C[C@H](N)[C@H](O)[C@H](C)O1 [doxorubicin]")
0.00296
>>> measured_number("CC(C)n1nc(-c2ccc3oc(N)nc3c2)c2c(N)ncnc21 [sapanisertib]")
0.462
>>> measured_number("C/C=C1\\NC(=O)[C@H]2CSSCC/C=C/[C@H](CC(=O)N[C@H](C(C)C)C(=O)N2)OC(=O)[C@H](C(C)C)NC1=O [romidepsin]")
-0.00341
>>> measured_number("CC(=O)O[C@H]1C(=O)[C@@]2(C)[C@H]([C@H](OC(=O)c3ccccc3)[C@]3(O)C[C@H](OC(=O)[C@H](O)[C@@H](NC(=O)c4ccccc4)c4ccccc4)C(C)=C1C3(C)C)[C@]1(OC(C)=O)CO[C@@H]1C[C@@H]2O [paclitaxel]")
0.474
>>> measured_number("CC[C@H](NC(=O)[C@H](C)NC)C(=O)N1C[C@@H](O)C[C@H]1Cc1c(-c2[nH]c3cc(F)ccc3c2C[C@@H]2C[C@H](O)CN2C(=O)[C@H](CC)NC(=O)[C@H](C)NC)[nH]c2cc(F)ccc12 [birinapant]")
0.0326

Now look at this entry.
Entry C[C@]12CC[C@@H]3c4ccc(O)cc4C[C@@H](CCCCCCCCC[S+]([O-])CCCC(F)(F)C(F)(F)F)[C@H]3[C@@H]1CC[C@@H]2O (stereo partly specified) [fulvestrant] has what CTG-3D luminescence at 96 h? 1.24

###

Record form. Attribute: CTG-3D luminescence at 96 h. Fill in for each entry.
Test system: HCI-002 (organoid from a triple-negative breast cancer xenograft)
assay: CTG-3D luminescence at 96 h relative to day-0 seeding control (ratio to day 0); higher = more growth / less cytotoxicity; PDxO 3D drug screen, 96 h, CTG-3D normalised to day-0 seeding control.
study.conditions: 0.005 µM; days in culture: 82
Numbers only.

>>> measured_number("O=C(O)C1(C(=O)O)CCC1.[NH2-].[NH2-].[Pt+2]")
1.99
>>> measured_number("COc1cccc2c1C(=O)c1c(O)c3c(c(O)c1C2=O)C[C@@](O)(C(=O)CO)C[C@@H]3O[C@H]1C[C@H](N)[C@H](O)[C@H](C)O1")
2.22
>>> measured_number("O=C(/C=C/c1cccnc1)NCCCCC1CCN(C(=O)c2ccccc2)CC1")
0.508
>>> measured_number("CC[C@H](NC(=O)[C@H](C)NC)C(=O)N1C[C@@H](O)C[C@H]1Cc1c(-c2[nH]c3cc(F)ccc3c2C[C@@H]2C[C@H](O)CN2C(=O)[C@H](CC)NC(=O)[C@H](C)NC)[nH]c2cc(F)ccc12")
1.96
>>> measured_number("Cc1cc(Nc2ncc(Cl)c(Nc3ccccc3S(=O)(=O)C(C)C)n2)c(OC(C)C)cc1C1CCNCC1")
2.18

Provide reported CTG-3D luminescence at 96 h for each item, in the same order as listed.
1. CC(C)n1nc(-c2ccc3oc(N)nc3c2)c2c(N)ncnc21
2. CNC(=O)c1cccc(-c2ccc3c(N4CCOC[C@@H]4C)nc(N4CCOC[C@@H]4C)nc3n2)c1

1. 2.04
2. 2.5

###

System: HCI-002
assay: CTG-3D luminescence at 96 h relative to day-0 seeding control (ratio to day 0); higher = more growth / less cytotoxicity; PDxO 3D drug screen, 96 h, CTG-3D normalised to day-0 seeding control.
study.conditions: 0.005 µM; days in culture: 209
Record form. Attribute: CTG-3D luminescence at 96 h. Fill in for each entry.
Answers are plain numbers.

>>> measured_number("CC(=O)O[C@H]1C(=O)[C@@]2(C)[C@H]([C@H](OC(=O)c3ccccc3)[C@]3(O)C[C@H](OC(=O)[C@H](O)[C@@H](NC(=O)c4ccccc4)c4ccccc4)C(C)=C1C3(C)C)[C@]1(OC(C)=O)CO[C@@H]1C[C@@H]2O [paclitaxel]")
1.2
>>> measured_number("CC1(C)CCC(c2ccc(Cl)cc2)=C(CN2CCN(c3ccc(C(=O)NS(=O)(=O)c4ccc(N[C@H](CCN5CCOCC5)CSc5ccccc5)c(S(=O)(=O)C(F)(F)F)c4)cc3)CC2)C1 [navitoclax]")
2.6

Now look at this entry.
Form field - read-out: CTG-3D luminescence at 96 h; system: HCI-002; submitted item: O=C(O)C1(C(=O)O)CCC1.[NH2-].[NH2-].[Pt+2] [carboplatin] 2.11

###

Record form. Attribute: CTG-3D luminescence at 96 h. Fill in for each entry.
Test system: HCI-010 (organoid from a breast cancer xenograft)
assay: CTG-3D luminescence at 96 h relative to day-0 seeding control (ratio to day 0); higher = more growth / less cytotoxicity; PDxO 3D drug screen, 96 h, CTG-3D normalised to day-0 seeding control.
study.conditions: 100 µM; days in culture: 65
Answers are plain numbers.

Solved cases (3 shown):
>>> measured_number("O=C(c1ccc(F)c(F)c1Nc1ccc(I)cc1F)N1CC(O)([C@@H]2CCCCN2)C1")
0.00337
>>> measured_number("NC(=O)Nc1cc(-c2cccc(F)c2)sc1C(=O)N[C@H]1CCCNC1")
0.00203
>>> measured_number("C=CCn1c(=O)c2cnc(Nc3ccc(N4CCN(C)CC4)cc3)nc2n1-c1cccc(C(C)(C)O)n1")
0.126

Provide reported CTG-3D luminescence at 96 h for each item, in the same order as listed.
1. Nc1ccn([C@@H]2O[C@H](CO)[C@@H](O)C2(F)F)c(=O)n1
2. CC(C)n1nc(-c2ccc3oc(N)nc3c2)c2c(N)ncnc21
3. Cc1cc(Nc2ncnc3ccc(NC4=NC(C)(C)CO4)cc23)ccc1Oc1ccn2ncnc2c1
4. C=CC(=O)N1CCC[C@@H](n2nc(-c3ccc(Oc4ccccc4)cc3)c3c(N)ncnc32)C1
5. CCN1CCN(Cc2ccc(Nc3ncc(F)c(-c4cc(F)c5nc(C)n(C(C)C)c5c4)n3)nc2)CC1

[0.0546, 0.00591, 0.008, -0.00863, 0.00729]

###

Record form. Attribute: CTG-3D luminescence at 96 h. Fill in for each entry.
Test system: HCI-008 (organoid from a HER2-enriched breast cancer xenograft)
assay: CTG-3D luminescence at 96 h relative to day-0 seeding control (ratio to day 0); higher = more growth / less cytotoxicity; PDxO 3D drug screen (set 2), 96 h, CTG-3D normalised to day-0 seeding control.
study.conditions: 0.00025 µM; days in culture: 340
Numbers only.

Solved cases (3 shown):
>>> measured_number("CC(=O)O[C@@]12CO[C@@H]1C[C@H](O)[C@@]1(C)C(=O)[C@H](O)C3=C(C)[C@@H](OC(=O)[C@H](O)[C@@H](NC(=O)OC(C)(C)C)c4ccccc4)C[C@@](O)([C@@H](OC(=O)c4ccccc4)[C@H]21)C3(C)C")
1.06
>>> measured_number("COc1cccc2c1C(=O)c1c(O)c3c(c(O)c1C2=O)C[C@@](O)(C(=O)CO)C[C@@H]3O[C@H]1C[C@H](N)[C@@H](O)[C@H](C)O1 [epirubicin]")
1.84
>>> measured_number("CC(C)n1nc(-c2ccc3oc(N)nc3c2)c2c(N)ncnc21")
2.32

Entry C[C@@H](Nc1cc(F)cc(F)c1)c1cc(C(=O)N(C)C)cc2c(=O)cc(N3CCOCC3)oc12 has what CTG-3D luminescence at 96 h? 2.42

###

Test system: HCI-002
assay: CTG-3D luminescence at 96 h relative to day-0 seeding control (ratio to day 0); higher = more growth / less cytotoxicity; PDxO 3D drug screen, 96 h, CTG-3D normalised to day-0 seeding control.
study.conditions: 0.1 µM; days in culture: 62
metric: CTG-3D luminescence at 96 h

Solved cases (2 shown):
>>> result("O=C(c1ccc(F)c(F)c1Nc1ccc(I)cc1F)N1CC(O)([C@@H]2CCCCN2)C1")
1.97
>>> result("CC[C@H](NC(=O)[C@H](C)NC)C(=O)N1C[C@@H](O)C[C@H]1Cc1c(-c2[nH]c3cc(F)ccc3c2C[C@@H]2C[C@H](O)CN2C(=O)[C@H](CC)NC(=O)[C@H](C)NC)[nH]c2cc(F)ccc12")
1.51

Now look at this entry.
Form field - read-out: CTG-3D luminescence at 96 h; system: HCI-002; submitted item: CC(C)n1nc(-c2ccc3oc(N)nc3c2)c2c(N)ncnc21 0.903

###

Record form. Attribute: CTG-3D luminescence at 96 h. Fill in for each entry.
System: HCI-003.E2 (organoid from an ER-positive breast cancer xenograft)
assay: CTG-3D luminescence at 96 h relative to day-0 seeding control (ratio to day 0); higher = more growth / less cytotoxicity; PDxO 3D drug screen (set 2), 96 h, CTG-3D normalised to day-0 seeding control.
study.conditions: 0.005 µM
Give bare numbers.

Solved cases (2 shown):
>>> measured_number("COc1cccc2c1C(=O)c1c(O)c3c(c(O)c1C2=O)C[C@@](O)(C(=O)CO)C[C@@H]3O[C@H]1C[C@H](N)[C@@H](O)[C@H](C)O1 [epirubicin]")
2.34
>>> measured_number("CC(=O)c1c(C)c2cnc(Nc3ccc(N4CCNCC4)cn3)nc2n(C2CCCC2)c1=O")
2.53

Provide reported CTG-3D luminescence at 96 h for each item, in the same order as listed.
1. CO[C@H]1C[C@@H]2CC[C@@H](C)[C@@](O)(O2)C(=O)C(=O)N2CCCC[C@H]2C(=O)O[C@H]([C@H](C)C[C@@H]2CC[C@@H](O)[C@H](OC)C2)CC(=O)[C@H](C)/C=C(\C)[C@@H](O)[C@@H](OC)C(=O)[C@H](C)C[C@H](C)/C=C/C=C/C=C/1C
2. O=C(c1cc(Cc2n[nH]c(=O)c3ccccc23)ccc1F)N1CCN(C(=O)C2CC2)CC1

[0.947, 2.72]

Just for reference, the supplement of paper PMC8882468 is where these values come from.
